- target_under_test: MAb 400-3
- assay_name: MAb inhibition ELISA; free peptide inhibits 400-3 binding to coated hG17(1-9)-“Ala”-BSA
Where no end group is shown, it is not given here. [ ]: non-standard residue; d: D form. pGlu = O=C1CC[C@@H](C(=O)O)N1
Hi there, I'd appreciate the recorded IC50 for every entry that follows.
The answer is to be given in nM; state only the numeric part.

Query :: Dear colleague, I am looking for the recorded IC50 of the following binder: EGPWLEEEEEAYGWMDF (N-terminal pyroglutamic acid (pE); C-terminal Phe-NH2 (amide)) [human gastrin-17 (G17)]
Result :: 1080

Query :: So what's the measured IC50 for this one? [pGlu]GPWLEEEEEAYGWMDFG (ends and bridges not checked) [glycine-extended gastrin-17 (G17-Gly)]
Result :: 1390
